B1: CCDC6 (parent)
chain: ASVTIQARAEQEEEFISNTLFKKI

variants of: B1; assay: protein stability index of a GFP-peptide fusion (GPS, HEK-293T) (PSI 1-6); higher = more stable; conditions: c terminus: a fixed tail appended;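 note: lentivirally expressed fusions sorted by FACS into six bins by GFP to DsRed ratio, PSI derived from sequencing read proportions per bin multiplied by bin number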
We begin with a simple list: items and their reported protein stability index.
Observed property: protein stability index

[
  {
    "Variant": "A9Y",
    "Val": 2.72
  },
  {
    "Variant": "Q6N",
    "Val": 3.75
  },
  {
    "Variant": "T4C",
    "Val": 3.52
  },
  {
    "Variant": "Q11F",
    "Val": 2.07
  }
]

# credit: the supplement of paper PMC10567573
